The reported measurements were obtained from patent US20260053904A1.

Measured pH inflection point, listed per entry for reference.
target-system: T1, cyno EpCAM (recombinant, ELISA antigen) (cynomolgus monkey)
T1 construct: extracellular domain; also called cynomolgus EpCAM extracellular domain
T1 sequence (Q1WER1 24-265): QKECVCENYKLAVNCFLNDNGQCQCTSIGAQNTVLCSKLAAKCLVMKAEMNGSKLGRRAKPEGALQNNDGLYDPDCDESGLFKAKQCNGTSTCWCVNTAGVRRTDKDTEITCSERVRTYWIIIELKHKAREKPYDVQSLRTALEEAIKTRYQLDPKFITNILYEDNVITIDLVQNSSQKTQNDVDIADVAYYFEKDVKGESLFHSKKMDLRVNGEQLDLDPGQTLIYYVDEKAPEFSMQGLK
assay-procedure: ELISA with pH titration, cyno EpCAM
Value expressed in pH; do not type the unit.

Asked: Record request: pH inflection point value, item BAP-105.4-03-02 (antibody, V domains shown, Humanized) VH: EVQLVQSGAEVKKPGESLRISCKGSGYTFTSYWMHWIRQSPSRGLEWLGYIRPSTGYTEYNQKFKDRVTISADKSISTAYLQWSSLKASDTAMYYCGRGDNWVGFANWGQGTLVTVSS VL: EIVMTQSPATLSVSPGERATLSCSASSSISYMHWYQQKPGKAPKLLIYSTSNLASGIPPRFSGSGYGTDFTLTINNIESEDAAYYFCHQWSTYETFGQGTKVEIK
Given back: 6.35

Asked: Record request: pH inflection point value, item BAP-105.4-01-02 (antibody, V domains shown, Humanized) VH: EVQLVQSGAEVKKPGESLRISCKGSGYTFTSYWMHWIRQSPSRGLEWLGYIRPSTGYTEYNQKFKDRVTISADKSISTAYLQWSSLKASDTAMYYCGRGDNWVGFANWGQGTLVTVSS VL: EIVLTQSPDFQSVTPKEKVTITCSASSSISYMHWYQQKPGKAPKLLIYSTSNLASGVPDRFSGSGSGTDFTLKISRVEAEDVGVYYCHQWSTYETFGQGTKVEIK
Given back: 6.27

Asked: Record request: pH inflection point value, item BAP-105.4-01-05 (antibody, V domains shown, Humanized) VH: EVQLVQSGAEVKKPGATVKISCKVSGYTFTSYWMHWIRQPPGKGLEWIGYIRPSTGYTEYNQKFKDRFTISRDNSKNTLYLQMNSLRAEDTAVYYCGRGDNWVGFANWGQGTLVTVSS VL: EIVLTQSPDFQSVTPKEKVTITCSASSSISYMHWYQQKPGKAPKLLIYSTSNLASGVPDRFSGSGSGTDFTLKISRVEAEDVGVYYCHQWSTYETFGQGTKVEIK
Given back: 6.35

Asked: Record request: pH inflection point value, item BAP-105.4-02-01 (antibody, V domains shown, Humanized) VH: EVQLVQSGAEVKKPGATVKISCKVSGYTFTSYWMHWVRQAPGQGLEWMGYIRPSTGYTEYNQKFKDRFTISRDNSKNTLYLQMNSLRAEDTAVYYCGRGDNWVGFANWGQGTLVTVSS VL: EIVMTQSPATLSVSPGERATLSCSASSSISYMHWYQQKPGKAPKLLIYSTSNLASGVPSRFSGSGSGTEFTLTISSLQPDDFATYYCHQWSTYETFGQGTKVEIK
Given back: 6.17
